% inhibition of SMAD7 mRNA expression by entry:
- Test system: human SMAD7 mRNA
- PROCEDURE DETAILS: Antisense inhibition of human SMAD7 mRNA expression in Hep3B cells by 3-10-3 cEt gapmers, 10,000 nM, electroporation (Example 2)
- Format: cell-based
- STATED CONDITIONS: Hep3B cells, electroporation with 10,000 nM antisense oligonucleotide, approximately 24 hours, primer probe set RTS5062, relative to untreated control cells
Strand notation (5' to 3'): a small letter for the sugar, then the base; units joined by * are phosphorothioate-linked, units joined directly phosphodiester-linked; [ ] holds rarer units or linkages, { } end groups; capitals alone tell only the bases. k = constrained ethyl (cEt); [5mC] = 5-methylcytosine; d = 2'-deoxy (DNA)
Give the number; % is assumed, so skip it.

// below: answered substances
[[record]]
substance = "798759 (kG*kG*k[5mC]*dG*dG*d[5mC]*dT*dG*d[5mC]*dG*d[5mC]*dA*dG*kG*k[5mC]*kT; antisense) [compound 798759]"
measure = "% inhibition of SMAD7 mRNA expression"
result_value = 40

[[record]]
substance = "798728 (antisense k[5mC]*kT*kT*dT*dG*dG*d[5mC]*dA*d[5mC]*d[5mC]*dT*d[5mC]*dG*k[5mC]*kA*k[5mC]) [compound 798728]"
measure = "% inhibition of SMAD7 mRNA expression"
result_value = 41

[[record]]
substance = "798971 (antisense kG*kG*kT*dG*dT*d[5mC]*d[5mC]*dT*dG*d[5mC]*d[5mC]*dG*dA*kT*k[5mC]*kA) [compound 798971]"
measure = "% inhibition of SMAD7 mRNA expression"
result_value = 53

[[record]]
substance = "799481 (antisense k[5mC]*kT*k[5mC]*d[5mC]*dA*d[5mC]*dA*d[5mC]*dA*dG*dG*d[5mC]*dA*kA*k[5mC]*k[5mC]) [compound 799481]"
measure = "% inhibition of SMAD7 mRNA expression"
result_value = 34

[[record]]
substance = "799205 (antisense kT*kA*kA*dA*dT*d[5mC]*dT*d[5mC]*dA*dG*dG*dT*dT*kT*kT*kT) [compound 799205]"
measure = "% inhibition of SMAD7 mRNA expression"
result_value = 54


Please fill in: % inhibition of SMAD7 mRNA expression reported for 799235 (kG*kA*kA*dA*dA*dA*d[5mC]*dA*dT*dT*d[5mC]*dA*dG*k[5mC]*kT*kA; antisense) [compound 799235] = 24

###

% inhibition of SMAD7 mRNA expression by entry:
- System: human SMAD7 mRNA
- PROCEDURE DETAILS: Antisense inhibition of human SMAD7 mRNA expression in Hep3B cells by 3-10-3 cEt gapmers, 10,000 nM, electroporation (Example 2)
- Assay type: cell-based
- STATED CONDITIONS: Hep3B cells, electroporation, 10,000 nM antisense oligonucleotide, approximately 24 hours, RTS5062, relative to untreated control cells
Strand notation (5' to 3'): a small letter for the sugar, then the base; units joined by * are phosphorothioate-linked, units joined directly phosphodiester-linked; [ ] holds rarer units or linkages, { } end groups; capitals alone tell only the bases. k = constrained ethyl (cEt); [5mC] = 5-methylcytosine; d = 2'-deoxy (DNA)
Give the number; % is assumed, so skip it.

// below: answered substances
[[record]]
substance = "799820 (antisense k[5mC]*k[5mC]*k[5mC]*d[5mC]*dA*dG*d[5mC]*dA*dG*dG*dG*dT*dT*kT*kT*kG) [compound 799820]"
measure = "% inhibition of SMAD7 mRNA expression"
u = "%"
result_value = 0

[[record]]
substance = "799502 (antisense k[5mC]*kA*kA*dA*dT*dA*dG*dG*dA*dA*dA*dG*d[5mC]*k[5mC]*kA*kA) [compound 799502]"
measure = "% inhibition of SMAD7 mRNA expression"
u = "%"
result_value = 31

[[record]]
substance = "799740 (antisense kT*kT*kA*dA*dA*dT*dA*dA*d[5mC]*dT*dG*dT*d[5mC]*k[5mC]*kT*k[5mC]) [compound 799740]"
measure = "% inhibition of SMAD7 mRNA expression"
u = "%"
result_value = 48

[[record]]
substance = "799681 (antisense kA*k[5mC]*kT*d[5mC]*dA*dT*d[5mC]*d[5mC]*dT*dG*dT*dT*dG*kG*k[5mC]*kA) [compound 799681]"
measure = "% inhibition of SMAD7 mRNA expression"
u = "%"
result_value = 53

[[record]]
substance = "799778 (kG*k[5mC]*kA*d[5mC]*dA*d[5mC]*d[5mC]*dT*dT*d[5mC]*d[5mC]*dA*dA*kG*k[5mC]*kA; antisense) [compound 799778]"
measure = "% inhibition of SMAD7 mRNA expression"
u = "%"
result_value = 10

[[record]]
substance = "799271 (antisense k[5mC]*kT*k[5mC]*dG*dA*dG*dT*d[5mC]*dA*dG*dG*d[5mC]*dT*k[5mC]*kA*kA) [compound 799271]"
measure = "% inhibition of SMAD7 mRNA expression"
u = "%"
result_value = 60


Record 799518 (antisense kA*k[5mC]*kT*dT*dA*dA*dG*dT*dA*dG*dA*dG*d[5mC]*kA*kA*kA) [compound 799518] has human SMAD7 mRNA % inhibition of SMAD7 mRNA expression equal to 38

Record 799794 (kA*kA*k[5mC]*d[5mC]*dA*d[5mC]*dA*dG*d[5mC]*dT*d[5mC]*d[5mC]*dT*kG*kT*kT; antisense) [compound 799794] has human SMAD7 mRNA % inhibition of SMAD7 mRNA expression equal to 0

###

- Test system: human SMAD7 mRNA
- PROCEDURE DETAILS: Dose-dependent inhibition of human SMAD7 mRNA expression in Hep3B cells (Example 3, Study 1 and 2)
- Type: cell-based
- STATED CONDITIONS: 2220 nM, electroporation, approximately 16 hours, Study 2
Strand notation (5' to 3'): a small letter for the sugar, then the base; units joined by * are phosphorothioate-linked, units joined directly phosphodiester-linked; [ ] holds rarer units or linkages, { } end groups; capitals alone tell only the bases. k = constrained ethyl (cEt); [5mC] = 5-methylcytosine; d = 2'-deoxy (DNA)
% inhibition of SMAD7 mRNA expression by entry:
Give the number; % is assumed, so skip it.

[[record]]
substance = "799686 (antisense kG*kA*kG*dA*dT*dT*dT*dT*dA*dA*dA*dT*dG*k[5mC]*kT*kG) [compound 799686]"
result_value = 35

[[record]]
substance = "799544 (kT*kT*k[5mC]*dA*dA*d[5mC]*dA*dA*dG*dT*dT*d[5mC]*d[5mC]*k[5mC]*kT*kA; antisense) [compound 799544]"
result_value = 38


Here is another substance to look at.
Please fill in: % inhibition of SMAD7 mRNA expression reported for 799402 (antisense kG*kG*kT*d[5mC]*dA*d[5mC]*dT*dG*dT*dT*d[5mC]*dT*d[5mC]*kT*k[5mC]*kT) [compound 799402] = 3

###

- Test system: human SMAD7 mRNA
- PROCEDURE DETAILS: Dose-dependent inhibition of human SMAD7 mRNA expression in Hep3B cells (Example 3, Study 1 and 2)
- Type: cell-based
- STATED CONDITIONS: 6670.0 nM, electroporation, approximately 16 hours, Study 2
Strand notation (5' to 3'): a small letter for the sugar, then the base; units joined by * are phosphorothioate-linked, units joined directly phosphodiester-linked; [ ] holds rarer units or linkages, { } end groups; capitals alone tell only the bases. k = constrained ethyl (cEt); [5mC] = 5-methylcytosine; d = 2'-deoxy (DNA)
Please mark met if the recorded % inhibition of SMAD7 mRNA expression is equal to or greater than 60%, and not met if it falls below.

Use these answered entries as a reference point.
[[record]]
substance = "799577 (kT*kT*k[5mC]*d[5mC]*dG*dA*dA*dA*dG*dG*dA*d[5mC]*d[5mC]*k[5mC]*kT*kT; antisense) [compound 799577]"
answer_label = "met"

[[record]]
substance = "830128 (antisense kA*k[5mC]*k[5mC]*dT*d[5mC]*d[5mC]*dG*dA*dG*dG*d[5mC]*dA*d[5mC]*k[5mC]*kA*k[5mC]) [compound 830128]"
answer_label = "met"

[[record]]
substance = "799118 (antisense kA*kG*kA*dG*d[5mC]*dT*dT*dA*dA*d[5mC]*dA*d[5mC]*dA*k[5mC]*kA*kG) [compound 799118]"
answer_label = "not met"

[[record]]
substance = "799070 (antisense kA*kG*kG*dG*dA*dA*dT*dA*dA*dG*dA*d[5mC]*dA*kA*kG*kG) [compound 799070]"
answer_label = "not met"

[[record]]
substance = "772732 (kG*kA*kT*dA*dT*dT*dT*dA*dG*d[5mC]*dT*dG*dT*k[5mC]*kA*kG; antisense) [compound 772732]"
answer_label = "met"


Moving on to the next substance.
Ask: # check: % inhibition of SMAD7 mRNA expression of 801051 (antisense kG*kT*kG*dT*dT*d[5mC]*dA*dA*d[5mC]*dA*dA*dT*dG*k[5mC]*kT*kT) [compound 801051] is greater than or equal to 60%
Result: met
